TARGET_OR_SYSTEM: 17,20beta-P membrane receptor (ovarian membrane progestin receptor, mPR)
Construct: gene paqr7; native receptor in crude ovarian plasma membrane fraction (20,000 g pellet)
ASSAY_PROTOCOL: competition with [3H]-17, […]β-P, filtration assay
Format: binding, Salvelinus alpinus
MEASUREMENT_CONDITIONS: 7 nM [3H]-17,20β-P, ovarian membranes, pH 7.4, +4°C, 30 min; read-out: Concentration (nM) causing 50% displacement
EXPERIMENTAL_ENDPOINT: log10 of IC50 (log10 of the value in nM)

CC(C)C(=O)Nc1ccc([N+](=O)[O-])c(C(F)(F)F)c1 [Flutamide] : 2.41
C[C@]12CCC(=O)C=C1CC[C@@H]1[C@@H]2CC[C@@]2(C)[C@H]1CC[C@]2(O)[C@H](O)CO [20β-S, 17, 20β, 21-trihydroxy-4-pregnen-3-one] : 2.16
C[C@]12CC[C@H]3[C@@H](CCC4=CC(=O)CC[C@@]43C)[C@@H]1CC[C@@H]2O : 4.26
C[C@]12CCC(=O)C=C1CC[C@@H]1[C@@H]2CC[C@@]2(C)[C@H]1CC[C@]2(O)C(=O)CO : 2.32
C[C@]12CC[C@@H]3c4ccc(O)cc4CC[C@H]3[C@@H]1CC[C@@H]2O [E2, 17β-estradiol] : 1.58
CN(C)c1ccc([C@H]2C[C@]3(C)[C@@H](CC[C@]3(O)CCCO)[C@@H]3CCC4=CC(=O)CCC4=C32)cc1 : 4.11
CC(=O)[C@H]1CC[C@H]2[C@@H]3CCC4=CC(=O)CC[C@]4(C)[C@H]3CC[C@]12C : 1.72
CC(=O)[C@@]1(O)CC[C@H]2[C@@H]3CCC4=CC(=O)CC[C@]4(C)[C@H]3CC[C@@]21C [17α-OH-P, 17α-hydroxyprogesterone] : 1.84
C[C@]12CCC(=O)C=C1CC[C@@H]1[C@@H]2[C@@H](O)C[C@@]2(C)[C@H]1CC[C@]2(O)C(=O)CO : 4.16
C[C@@H](O)[C@@]1(O)CC[C@H]2[C@@H]3CCC4=CC(=O)CC[C@]4(C)[C@H]3CC[C@@]21C [17,20β-P, 17,20beta-dihydroxy-4-pregnen-3-one] : 0.10
Clc1ccc(C(c2ccccc2Cl)C(Cl)Cl)cc1 (stereo not shown) : 2.74
Clc1ccc(C(c2ccccc2Cl)C(Cl)(Cl)Cl)cc1 (stereo not shown) : 2.58
C[C@]12CC[C@H]3[C@@H](CCC4=CC(=O)CC[C@@]43C)[C@@H]1CC[C@@H]2C(=O)CO : 2.12

The values you see were collected from paper PMC1298333.
